The origin of these recorded values is patent US20240058450A1.

Measured Ki, listed per entry.
biological target: Bcl-xL (Homo sapiens, UniProt Q07817); test: Time Resolved-Fluorescence Resonance Energy Transfer (TR-FRET) binding assay, competition with probe F-Bak; details: in the presence of 1% HS; read-out: Bcl-xL Binding Ki (nM, 1% HS)
Sequence (Q07817 whole entry): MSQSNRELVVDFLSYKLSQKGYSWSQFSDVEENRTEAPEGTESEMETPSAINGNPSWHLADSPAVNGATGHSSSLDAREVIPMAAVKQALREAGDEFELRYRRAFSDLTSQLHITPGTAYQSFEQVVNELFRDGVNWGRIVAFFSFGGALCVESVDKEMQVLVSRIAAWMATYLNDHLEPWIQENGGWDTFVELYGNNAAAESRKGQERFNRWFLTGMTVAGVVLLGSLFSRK
Attribute measured: Ki (nM)

* Cc1c(-c2ccc(N3CCc4cccc(C(=O)Nc5nc6ccccc6s5)c4C3)nc2C(=O)O)cnn1CC12CC3(C)CC(C)(C1)CC(OCCNCCP(=O)(O)O)(C3)C2 | 0.08
* Cc1c(-c2ccc(-c3ccc4cccc(C(=O)Nc5nc6ccccc6s5)c4c3)nc2C(=O)O)cnn1CC12CC3(C)CC(C)(C1)CC(OCCNCCCS(=O)(=O)O)(C3)C2 | 0.439
* Cc1c(-c2ccc(N3CCc4cccc(C(=O)Nc5nc6ccccc6s5)c4C3)nc2C(=O)O)cnn1CC12CC3(C)CC(C)(C1)CC(OCCNCCCc1cn([C@@H]4O[C@H](C(=O)O)[C@@H](O)[C@H](O)[C@H]4O)nn1)(C3)C2 | 34
* Cc1c(-c2ccc(-c3ccc4cccc(C(=O)Nc5nc6ncccc6s5)c4c3)nc2C(=O)O)cnn1CC12CC3(C)CC(C)(C1)CC(OCCNCCS(=O)(=O)O)(C3)C2 | 0.11
* CNCCOC12CC3(C)CC(C)(CC(Cn4ncc(-c5ccc(N6CCc7c(OCCCP(=O)(O)O)ccc(C(=O)Nc8nc9ccccc9s8)c7C6)nc5C(=O)O)c4C)(C3)C1)C2 | 0.055

* * *

biological target: Bcl-xL (Homo sapiens, UniProt Q07817); experiment: Time Resolved-Fluorescence Resonance Energy Transfer (TR-FRET) binding assay, competition with probe F-Bak; details: in the presence of 1% HS; read-out: Bcl-xL Binding Ki (nM, 1% HS)
Attribute measured: Ki (nM)

- Cc1c(-c2ccc(-c3ccc4cccc(C(=O)Nc5nc6ccccc6s5)c4c3)nc2C(=O)O)cnn1CC12CC3(C)CC(C)(C1)CC(OCCNCCS(=O)(=O)O)(C3)C2 [Example 1.43]: 0.86
- Cc1c(-c2ccc(N3CCc4cccc(C(=O)Nc5nc6ccccc6s5)c4C3)nc2C(=O)O)cnn1CC12CC3(C)CC(C)(C1)CC(OCCN(CCNCCC(=O)O)CCS(=O)(=O)O)(C3)C2 [Example 1.38]: 0.203
- CNCCOC12CC3(C)CC(C)(CC(Cn4ncc(-c5ccc(N6CCc7c(OCCCS(=O)(=O)O)ccc(C(=O)Nc8nc9ccccc9s8)c7C6)nc5C(=O)O)c4C)(C3)C1)C2 [Example 1.52]: 0.0329
- Cc1c(-c2ccc(N3CCc4cccc(C(=O)Nc5nc6ccccc6s5)c4C3)nc2C(=O)O)cnn1CC12CC3(C)CC(C)(C1)CC(OCCNCC(CO)CO)(C3)C2 [Example 1.79]: 3.1

* * *

Measured log10(Ki), listed per entry.
target: Bcl-xL (Homo sapiens, UniProt Q07817); experiment: Time Resolved-Fluorescence Resonance Energy Transfer (TR-FRET) binding assay, competition with probe F-Bak; conditions: in the presence of 1% HS; read-out: Bcl-xL Binding Ki (nM, 1% HS)
Attribute measured: log10(Ki) (log10 of the value in nM)

- Cc1c(-c2ccc(N3CCc4cccc(C(=O)Nc5nc6ccccc6s5)c4C3)nc2C(=O)O)cnn1CC12CC3(C)CC(C)(C1)CC(OCCNCCCP(=O)(O)O)(C3)C2 [Example 1.14]: -0.74
- Cc1c(-c2ccc(-c3cc4cccc(C(=O)Nc5nc6ccccc6s5)c4[nH]3)nc2C(=O)O)cnn1CC12CC3(C)CC(C)(C1)CC(OCCNCCS(=O)(=O)O)(C3)C2 [Example 1.74]: -1.80
- Cc1c(-c2ccc(N3CCc4cccc(C(=O)Nc5nc6ccccc6s5)c4C3)nc2C(=O)O)cnn1CC12CC3(C)CC(C)(C1)CC(OCCNC1CCN(CC(=O)O)CC1)(C3)C2 [Example 1.28]: -1.34
- Cc1c(-c2ccc(-c3ccc4c(c3)N(C(=O)Nc3nc5ccccc5s3)CCC4)nc2C(=O)O)cnn1CC12CC3(C)CC(C)(C1)CC(OCCN(C)C1CNC1)(C3)C2 [Example 1.65]: -1.00
- Cc1c(-c2ccc(N3CCc4cccc(C(=O)Nc5nc6ccccc6s5)c4C3)nc2C(=O)O)cnn1CC12CC3(C)CC(C)(C1)CC(OCCNC(CO)CO)(C3)C2 [Example 1.45]: -0.87
